- TEST_NAME: Pharmacokinetic analysis of CBN and metabolites in rat plasma and brain (LC-MS/MS)
- Assay type: in vivo
- CONDITION: rat brain after CBN 10 mg/kg IP; analyte as labelled; read-out: Brain tmax

CHEMICAL_STRUCTURE: CCCCCc1cc(O)c2c(c1)OC(C)(C)c1ccc(C(=O)O)cc1-2
MEASURE_UNIT: h
Tmax: 2

----------
- TEST_NAME: Pharmacokinetic analysis of CBN and metabolites in rat plasma and brain (LC-MS/MS)
- Format: in vivo
- CONDITION: ip; rat plasma after CBN 10 mg/kg; read-out: plasma Tmax (converted)

CHEMICAL_STRUCTURE: CCCCCc1cc(O)c2c(c1)OC(C)(C)c1ccc(C)cc1-2
Tmax: 30 min

----------
- TEST_NAME: Pharmacokinetic analysis of CBN and metabolites in rat plasma and brain (LC-MS/MS)
- Format: in vivo
- CONDITION: ip; rat, after CBN 10 mg/kg; similar in plasma and brain; read-out: half-life in plasma and brain (converted)
METRIC: half-life

MOLECULE: CCCCCc1cc(O)c2c(c1)OC(C)(C)c1ccc(C)cc1-2
ENDPOINT_VALUE: ~2 h

MOLECULE: CCCCCc1cc(O)c2c(c1)OC(C)(C)c1ccc(CO)cc1-2 [11-OH-CBN, 11-hydroxy-cannabinol]
ENDPOINT_VALUE: ~2 h

----------
- TEST_NAME: Pharmacokinetic analysis of CBN and metabolites in rat plasma and brain (LC-MS/MS)
- Format: in vivo
- CONDITION: ip; rat plasma after CBN 10 mg/kg, post-dose; read-out: plasma Tmax (converted)
Readings of Tmax for the listed compounds
METRIC: Tmax

COMPOUND: CCCCCc1cc(O)c2c(c1)OC(C)(C)c1ccc(CO)cc1-2 [11-OH-CBN, 11-hydroxy-cannabinol]
METRIC: Tmax
ENDPOINT_VALUE: 1 h

COMPOUND: CCCCCc1cc(O)c2c(c1)OC(C)(C)c1ccc(C(=O)O)cc1-2
METRIC: Tmax
ENDPOINT_VALUE: 1 h

----------
- TARGET_ENTITY: human CB1 receptors (Homo sapiens)
- Sequence (P21554 whole entry): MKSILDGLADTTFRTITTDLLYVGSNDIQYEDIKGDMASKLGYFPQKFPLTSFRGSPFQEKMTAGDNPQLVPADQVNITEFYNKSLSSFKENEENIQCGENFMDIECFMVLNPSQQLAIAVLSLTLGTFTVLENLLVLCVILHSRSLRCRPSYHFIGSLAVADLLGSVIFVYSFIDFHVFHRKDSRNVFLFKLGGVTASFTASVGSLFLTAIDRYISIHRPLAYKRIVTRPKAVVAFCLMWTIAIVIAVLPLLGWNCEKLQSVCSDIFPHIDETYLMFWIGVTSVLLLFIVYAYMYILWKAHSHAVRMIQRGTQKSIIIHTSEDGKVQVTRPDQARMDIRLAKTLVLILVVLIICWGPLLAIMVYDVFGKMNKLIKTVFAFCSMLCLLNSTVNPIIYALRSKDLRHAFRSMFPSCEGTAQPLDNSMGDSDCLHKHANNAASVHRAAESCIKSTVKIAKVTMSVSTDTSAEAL
- TEST_NAME: cell-based
- Assay type: cell-based
- Set-up: expressed in transfected cells; host or cells: mouse AtT20 FlpIn cells

CHEMICAL_STRUCTURE: CCCCCc1cc(O)c2c(c1)OC(C)(C)c1ccc(C)cc1-2
EC50 / µM: 3.98

----------
- TEST_NAME: Pharmacokinetic analysis of CBN and metabolites in rat plasma and brain (LC-MS/MS)
- Assay type: in vivo
- CONDITION: ip; rat plasma after CBN 10 mg/kg; read-out: t1/2 plasma (converted)
- Procedure: Rats received 10 mg/kg CBN IP at approximately ZT13. Rats were then anesthetized with isoflurane at selected ZT points (13, 13.5, 14, 15, 17, 19, and 21) and blood was collected by terminal cardiac puncture. […] Quantification of CBN, 11-OH-CBN and 11-COOH-CBN in plasma and brain samples was performed by comparing experimental samples to eight-point standard curves prepared with known amounts of cannabinoid. […]
METRIC: half-life

CHEMICAL_STRUCTURE: CCCCCc1cc(O)c2c(c1)OC(C)(C)c1ccc(C(=O)O)cc1-2
METRIC: half-life
ENDPOINT_VALUE: 4.52 h

----------
- TEST_NAME: Pharmacokinetic analysis of CBN and metabolites in rat plasma and brain (LC-MS/MS)
- Assay type: in vivo
- CONDITION: ip; rat brain after CBN 10 mg/kg; read-out: brain Tmax
Readings of Tmax for the listed compounds
METRIC: Tmax (h)

COMPOUND: CCCCCc1cc(O)c2c(c1)OC(C)(C)c1ccc(CO)cc1-2 [11-OH-CBN, 11-hydroxy-cannabinol]
ENDPOINT_VALUE: 2

COMPOUND: CCCCCc1cc(O)c2c(c1)OC(C)(C)c1ccc(C)cc1-2
ENDPOINT_VALUE: 2
